Measured IC50 by item
Target: human FOXO1 (constitutively active form Thr24Ala, Ser256Ala, Ser319Ala) (Homo sapiens, UniProt Q12778, S256A/S319A/T24A)
Sequence (Q12778 whole entry T24A/S256A/S319A): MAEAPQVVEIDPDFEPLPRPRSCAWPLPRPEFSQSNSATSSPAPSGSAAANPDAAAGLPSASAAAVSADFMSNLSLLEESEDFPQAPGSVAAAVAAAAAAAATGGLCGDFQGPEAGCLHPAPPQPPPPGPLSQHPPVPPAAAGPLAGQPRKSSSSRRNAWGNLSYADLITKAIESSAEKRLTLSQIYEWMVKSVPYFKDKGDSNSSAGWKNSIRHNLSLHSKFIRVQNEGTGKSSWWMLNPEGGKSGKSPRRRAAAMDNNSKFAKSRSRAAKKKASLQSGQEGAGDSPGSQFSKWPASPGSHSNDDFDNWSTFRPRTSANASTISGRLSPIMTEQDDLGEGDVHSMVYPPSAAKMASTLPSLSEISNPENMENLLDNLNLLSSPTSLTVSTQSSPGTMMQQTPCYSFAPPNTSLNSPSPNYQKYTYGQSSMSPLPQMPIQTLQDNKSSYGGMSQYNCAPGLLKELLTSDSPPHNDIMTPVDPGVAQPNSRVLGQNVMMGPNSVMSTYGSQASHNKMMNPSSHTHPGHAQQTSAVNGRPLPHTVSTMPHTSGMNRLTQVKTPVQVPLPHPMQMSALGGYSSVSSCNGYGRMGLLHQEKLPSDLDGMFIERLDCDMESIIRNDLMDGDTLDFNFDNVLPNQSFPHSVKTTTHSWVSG
Test: FOXO1 inhibitor activity assay: cell-based transcriptional (luciferase) reporter assay in HEK293 cells
Conditions: HEK293 cells transfected with insulin response element firefly luciferase reporter, FOXO1 and Renilla luciferase; 10-point dose response 50 μM to 2.5 nM; 24 hours
Counter-ions that a name gives are not always drawn.

O=C(O)CN1CCN(c2ccc(C(=O)Nc3cc(-c4nc5ccccc5[nH]4)[nH]n3)cc2)CC1 [Compound A-199, hydrochloride] :: 100 to 300 nM
Cn1nc(NC(=O)c2ccc(N3CCNCC3)cc2)cc1-c1nc2ccccc2[nH]1 :: 100 to 300 nM
Cn1nc(NC(=O)c2ccc(N3CCOCC3)nc2)cc1-c1nc2ccccc2[nH]1 :: < 100 nM

Turning now to a further record.
Which IC50 is listed for COCCNc1ccc(C(=O)Nc2cc(-c3nc4ccccc4[nH]3)[nH]n2)cc1Cl ?
< 100 nM

====

// reported pIC50 for each item listed
Molecular target: human FOXO1 (constitutively active form Thr24Ala, Ser256Ala, Ser319Ala) (Homo sapiens, UniProt Q12778, S256A/S319A/T24A)
Construct: expressed in transfected cells; host or cells: HEK293 cells transfected with pcDNA3.1 plasmid
Assay: FOXO1 inhibitor activity assay: cell-based transcriptional (luciferase) reporter assay in HEK293 cells
Settings: HEK293 cells transfected with insulin response element firefly luciferase reporter, FOXO1 and Renilla luciferase; 10-point dose response 50 μM to 2.5 nM; 24 hours
pIC50: −log10 of the molar value.

Consider the worked cases shown below.
Cc1ccc2[nH]c(-c3cc(NC(=O)c4ccc(OCCO)c(Cl)c4)n[nH]3)nc2c1 :: > 7.00
Cc1ccc2[nH]c(-c3cc(NC(=O)c4ccc(N5CCC(CO)CC5)nc4)n[nH]3)nc2c1 :: > 7.00
Cn1nc(NC(=O)c2ccc(N3CCC4(CC3)COC4)nc2)cc1-c1nc2ccccc2[nH]1 :: > 7.00

Recorded pIC50 for Cn1nc(NC(=O)c2ccc(OC3COC3)c(Cl)c2)cc1-c1nc2ccccc2[nH]1 , please?
> 7.00

Consider the molecule O=C(Nc1cc(-c2nc3cc(Br)ccc3[nH]2)[nH]n1)c1ccc(N2CCOCC2)nc1 and give its measured pIC50.
< 6.00

====

Target: human FOXO1 (constitutively active form Thr24Ala, Ser256Ala, Ser319Ala) (Homo sapiens, UniProt Q12778, S256A/S319A/T24A)
Experiment: FOXO1 inhibitor activity assay: cell-based transcriptional (luciferase) reporter assay in HEK293 cells
Settings: HEK293 cells transfected with insulin response element firefly luciferase reporter, FOXO1 and Renilla luciferase; 10-point dose response 50 μM to 2.5 nM; 24 hours
Quick reference for IC50 among some compounds

COCCn1nc(NC(=O)c2ccc(N3CC(OC)C3)nc2)cc1-c1nc2ccccc2[nH]1 [Compound A-176] :: > 1000 nM
COc1ccc2nc(-c3cc(NC(=O)c4ccc(OC)c(Cl)c4)n[nH]3)cn2c1 [Compound A-161] :: 100 to 300 nM
COCC(=O)N1CCN(c2ccc(C(=O)Nc3cc(-c4nc5ccccc5[nH]4)n(C)n3)cn2)CC1 [Compound A-271] :: 100 to 300 nM

Need IC50 of Cn1nc(NC(=O)c2ccc(N3CCC(CO)CC3)nc2)cc1-c1nc2ccccc2[nH]1 [Compound A-96] , thanks.
< 100 nM

I would be grateful if you could share the reported IC50 for O=C(Nc1cc(-c2nc3ccccc3[nH]2)[nH]n1)c1ccc(N2CC3(COC3)C2)nc1 [Compound A-45] .
> 1000 nM

Sample COCCn1nc(NC(=O)c2ccc(OC)c(Cl)c2)cc1-c1nc2ccccc2[nH]1 [Compound A-175] — what was its IC50?
> 1000 nM

Reported IC50 for O=C(Nc1cc(-c2nc3cc(OC(F)(F)F)ccc3[nH]2)[nH]n1)c1ccc(OCCO)c(Cl)c1 [Compound A-116] : what is it?
100 to 300 nM

Requested read-out: IC50. Entry: Cn1nc(NC(=O)c2ccc(N3CCOCC3)nc2)cc1-c1nc2cc(F)ccc2[nH]1 [Compound A-148]
100 to 300 nM
